target: Platelet-derived growth factor receptor beta (Homo sapiens); details: at 10 µM
Could you mark each record MET if its residual activity falls strictly under 90%, and NOT MET if it equals or exceeds it?

Below, 4 compounds whose answers are already recorded.
> print(dat)
                                   compound    label
1       Fc1ccc(-c2nc3n(c2-c2ccncc2)CCS3)cc1  NOT MET
2  CCN(CC)CCNC(=O)c1c(C)[nH]c(/C=C2\C(=O)Nc3ccc(Cl)cc32)c1C      MET
3  COc1cc2nccc(Oc3ccc(NC(=O)Nc4cc(C)on4)c(Cl)c3)c2cc1OC      MET
4  O=C(NC(NC(=S)Nc1ccc(F)c([N+](=O)[O-])c1)C(Cl)(Cl)Cl)C(c1ccccc1)c1ccccc1 (stereo not drawn)  NOT MET

Query :: Please let me know if O=C1NC(=O)C(c2cn(CCCO)c3ncccc23)=C1c1cnccn1 shows residual activity below 90%.
Result :: NOT MET

---

target: Serine/threonine-protein kinase WNK2 (Homo sapiens) (UniProt Q9Y3S1); conditions: at 10 µM
Sequence (Q9Y3S1 whole entry): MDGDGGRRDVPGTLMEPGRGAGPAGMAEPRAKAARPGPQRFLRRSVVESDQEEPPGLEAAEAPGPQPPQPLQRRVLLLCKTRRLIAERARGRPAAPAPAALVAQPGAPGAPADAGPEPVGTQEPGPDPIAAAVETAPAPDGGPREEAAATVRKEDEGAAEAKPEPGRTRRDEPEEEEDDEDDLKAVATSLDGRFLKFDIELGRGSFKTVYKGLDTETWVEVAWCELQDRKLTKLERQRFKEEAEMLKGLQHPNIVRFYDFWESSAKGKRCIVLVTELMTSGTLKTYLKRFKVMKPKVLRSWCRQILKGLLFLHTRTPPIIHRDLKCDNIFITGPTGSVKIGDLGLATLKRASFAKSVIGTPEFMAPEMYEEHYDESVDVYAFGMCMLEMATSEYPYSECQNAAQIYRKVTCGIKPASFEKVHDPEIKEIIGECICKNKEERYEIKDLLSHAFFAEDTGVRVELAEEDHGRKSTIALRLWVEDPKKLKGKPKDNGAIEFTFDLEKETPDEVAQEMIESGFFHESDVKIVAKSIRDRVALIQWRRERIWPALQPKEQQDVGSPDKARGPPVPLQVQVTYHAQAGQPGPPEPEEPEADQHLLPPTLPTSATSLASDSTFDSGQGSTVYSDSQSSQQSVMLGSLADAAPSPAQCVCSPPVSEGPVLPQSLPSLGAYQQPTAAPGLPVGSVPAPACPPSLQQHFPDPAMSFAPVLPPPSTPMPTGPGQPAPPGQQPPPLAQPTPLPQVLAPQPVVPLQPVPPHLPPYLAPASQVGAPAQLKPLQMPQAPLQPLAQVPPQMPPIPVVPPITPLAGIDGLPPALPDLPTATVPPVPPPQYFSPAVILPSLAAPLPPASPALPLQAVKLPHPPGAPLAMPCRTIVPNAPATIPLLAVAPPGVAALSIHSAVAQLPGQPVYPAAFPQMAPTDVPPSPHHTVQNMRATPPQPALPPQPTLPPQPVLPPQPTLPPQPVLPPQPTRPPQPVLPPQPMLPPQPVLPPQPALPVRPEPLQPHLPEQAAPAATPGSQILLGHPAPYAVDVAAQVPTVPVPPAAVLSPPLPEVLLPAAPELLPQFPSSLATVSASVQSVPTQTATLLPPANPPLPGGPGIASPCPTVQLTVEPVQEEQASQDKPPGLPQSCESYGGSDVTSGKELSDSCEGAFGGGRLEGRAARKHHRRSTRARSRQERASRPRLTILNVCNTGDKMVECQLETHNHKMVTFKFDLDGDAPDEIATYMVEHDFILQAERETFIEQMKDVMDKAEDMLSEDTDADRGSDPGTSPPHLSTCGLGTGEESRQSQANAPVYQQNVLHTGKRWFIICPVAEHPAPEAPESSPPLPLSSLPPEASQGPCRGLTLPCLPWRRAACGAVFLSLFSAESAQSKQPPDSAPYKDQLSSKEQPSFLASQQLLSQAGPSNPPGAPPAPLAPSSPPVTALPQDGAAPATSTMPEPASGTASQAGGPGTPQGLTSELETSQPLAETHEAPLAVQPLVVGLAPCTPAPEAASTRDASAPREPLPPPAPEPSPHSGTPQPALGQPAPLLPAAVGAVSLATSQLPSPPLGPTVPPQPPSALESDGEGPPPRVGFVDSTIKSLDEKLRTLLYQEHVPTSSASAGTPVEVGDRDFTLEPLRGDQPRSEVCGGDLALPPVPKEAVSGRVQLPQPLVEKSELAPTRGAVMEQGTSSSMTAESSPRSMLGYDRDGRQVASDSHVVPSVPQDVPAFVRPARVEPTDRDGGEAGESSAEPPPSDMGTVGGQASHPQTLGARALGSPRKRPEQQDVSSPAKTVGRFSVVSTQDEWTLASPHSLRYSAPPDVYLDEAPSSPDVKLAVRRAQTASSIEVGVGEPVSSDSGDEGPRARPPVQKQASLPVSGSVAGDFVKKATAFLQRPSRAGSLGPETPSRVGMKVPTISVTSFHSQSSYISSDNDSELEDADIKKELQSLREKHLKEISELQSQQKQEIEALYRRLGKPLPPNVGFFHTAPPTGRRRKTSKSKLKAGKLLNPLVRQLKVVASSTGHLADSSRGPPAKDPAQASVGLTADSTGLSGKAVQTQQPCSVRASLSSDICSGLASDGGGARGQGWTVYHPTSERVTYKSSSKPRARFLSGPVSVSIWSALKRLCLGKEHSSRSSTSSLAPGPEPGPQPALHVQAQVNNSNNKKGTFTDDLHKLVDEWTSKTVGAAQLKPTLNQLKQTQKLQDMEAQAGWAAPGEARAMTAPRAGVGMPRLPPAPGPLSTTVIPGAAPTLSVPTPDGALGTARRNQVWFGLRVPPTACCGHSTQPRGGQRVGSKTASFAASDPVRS
Description: Millipore: Percentage of residual kinase activity of WNK2 at 10uM relative to control. Control inhibitor: Phosphoric acid* at 0.3uM. Buffer: 8 mM MOPS pH 7.0, 0.2 mM EDTA
PARAMETER_MEASURED: residual activity (%)
Note: unit % is implicit; provide only the numeric part.

Examples with their reported residual activity follow.
> print(dat)
                                        mol  parameter.measured  meas.value
1  Nc1nc(Nc2ccc(S(N)(=O)=O)cc2)nn1C(=O)c1c(F)cccc1F   residual activity          82
2     O=c1cc(N2CCNCC2)oc2c(-c3ccccc3)cccc12   residual activity          80

The value of residual activity measured for the compound Cc1cc(C)c(/C=C2\C(=O)Nc3ccccc32)[nH]1 turned out to be 82

---

molecular target: Mitogen-activated protein kinase 10 (Homo sapiens) (UniProt P53779); conditions: at 10 µM
Sequence (P53779 whole entry): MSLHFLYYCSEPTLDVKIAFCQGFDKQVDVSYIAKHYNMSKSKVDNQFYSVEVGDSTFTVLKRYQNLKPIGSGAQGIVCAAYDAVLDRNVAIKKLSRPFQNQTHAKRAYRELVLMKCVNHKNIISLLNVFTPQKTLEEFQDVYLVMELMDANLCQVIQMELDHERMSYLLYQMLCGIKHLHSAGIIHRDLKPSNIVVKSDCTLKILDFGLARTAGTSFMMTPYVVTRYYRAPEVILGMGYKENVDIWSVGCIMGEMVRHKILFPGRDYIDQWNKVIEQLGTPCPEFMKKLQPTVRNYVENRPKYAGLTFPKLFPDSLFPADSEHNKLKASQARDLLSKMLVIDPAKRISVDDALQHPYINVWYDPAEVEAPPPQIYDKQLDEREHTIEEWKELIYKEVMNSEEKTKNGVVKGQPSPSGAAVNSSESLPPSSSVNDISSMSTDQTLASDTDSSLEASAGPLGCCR
PARAMETER_MEASURED: residual activity (%)
Note: unit % is implicit; provide only the numeric part.

Examples with their reported residual activity follow.
> print(dat)
                                        mol  meas.value
1      O=C(Nc1ccc(Cl)cc1)c1ccccc1NCc1ccncc1         123
2       CCCCc1c(-c2ccc(OC)cc2)[nH]c2nccnc12          41
3           CCN1/C(=C/C(C)=O)Sc2ccc(OC)cc21          64
4  CC(C)(C)n1nc(Cc2cccc3ccccc23)c2c(N)ncnc21          -1
5  Nc1nc(Nc2ccc(S(N)(=O)=O)cc2)nn1C(=O)c1c(F)cccc1F          12

# context switch: different molecule, same residual activity
The value of residual activity measured for the molecule O=C1NC(=O)c2c1c1c3ccccc3[nH]c1n1cncc21 turned out to be 11

---

Quick reference: residual activity of the listed items.
target: Homeodomain-interacting protein kinase 3 (Homo sapiens) (UniProt Q9H422); conditions: at 10 µM
Sequence (Q9H422 whole entry, looked up): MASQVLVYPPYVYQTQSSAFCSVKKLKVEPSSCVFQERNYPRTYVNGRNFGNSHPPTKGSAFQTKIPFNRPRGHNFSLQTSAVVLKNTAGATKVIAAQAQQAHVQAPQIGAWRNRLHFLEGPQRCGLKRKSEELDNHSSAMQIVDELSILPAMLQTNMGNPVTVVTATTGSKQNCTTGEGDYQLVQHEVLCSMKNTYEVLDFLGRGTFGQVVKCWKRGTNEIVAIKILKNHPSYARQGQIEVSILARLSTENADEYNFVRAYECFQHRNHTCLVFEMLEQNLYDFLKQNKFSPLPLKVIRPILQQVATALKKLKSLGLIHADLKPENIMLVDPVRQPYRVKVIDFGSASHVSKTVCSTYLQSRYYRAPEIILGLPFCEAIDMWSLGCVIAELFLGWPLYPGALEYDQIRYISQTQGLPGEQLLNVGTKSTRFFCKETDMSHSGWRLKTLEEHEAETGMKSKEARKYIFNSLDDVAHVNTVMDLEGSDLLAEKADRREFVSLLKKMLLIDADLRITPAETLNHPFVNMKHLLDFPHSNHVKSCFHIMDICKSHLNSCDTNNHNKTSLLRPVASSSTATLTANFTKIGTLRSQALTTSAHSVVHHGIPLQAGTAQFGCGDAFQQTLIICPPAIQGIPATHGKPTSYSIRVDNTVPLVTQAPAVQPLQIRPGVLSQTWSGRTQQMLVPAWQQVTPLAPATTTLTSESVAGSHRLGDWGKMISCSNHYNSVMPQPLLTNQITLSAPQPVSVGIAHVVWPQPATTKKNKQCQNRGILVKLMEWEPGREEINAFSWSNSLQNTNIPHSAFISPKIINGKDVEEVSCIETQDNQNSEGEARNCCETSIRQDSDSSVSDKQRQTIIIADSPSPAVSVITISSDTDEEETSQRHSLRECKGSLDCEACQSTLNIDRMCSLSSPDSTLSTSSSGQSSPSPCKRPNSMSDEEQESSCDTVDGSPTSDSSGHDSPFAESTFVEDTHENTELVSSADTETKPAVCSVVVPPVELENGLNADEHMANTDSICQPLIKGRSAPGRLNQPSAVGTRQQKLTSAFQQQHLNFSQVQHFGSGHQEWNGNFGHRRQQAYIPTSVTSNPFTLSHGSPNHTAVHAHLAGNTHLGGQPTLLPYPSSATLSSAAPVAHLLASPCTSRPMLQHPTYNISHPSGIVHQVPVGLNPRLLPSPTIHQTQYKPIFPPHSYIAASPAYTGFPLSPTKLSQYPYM
Note: unit % is implicit; provide only the numeric part.

Examples with their reported residual activity follow.
> print(dat)
                                    compound  parameter.measured  unit.info  meas.value
 1  N#C/C(=C1/Nc2ccccc2S1)c1ccnc(NCCc2cccnc2)n1   residual activity          %          21
 2  COc1ccc2c(c1)c(C1=C(c3c[nH]c4ccccc34)C(=O)NC1=O)cn2CCCN(C)C   residual activity          %          22
 3  Oc1cccc(-c2nc(N3CCOCC3)c3oc4ncccc4c3n2)c1   residual activity          %          59
 4  CCN(CC)CCNC(=O)c1c(C)[nH]c(/C=C2\C(=O)Nc3ccc(Cl)cc32)c1C   residual activity          %          -5
 5  CC(C)[C@H](CO)Nc1nc(Nc2cc(N)cc(Cl)c2)c2ncn(C(C)C)c2n1   residual activity          %          73
 6        NC(=O)Nc1sc(-c2ccc(F)cc2)cc1C(N)=O   residual activity          %          90
 7  CC(C)c1nn(-c2c(Cl)cccc2Cl)c2nc(Cc3ccc(OCCO)cc3)[nH]c(=O)c12   residual activity          %         103
 8    N#Cc1c(NC(=O)c2cccc3ccccc23)sc2c1CCCC2   residual activity          %          99
 9    CC(C)N(CCC(=O)c1ccc2ccccc2c1)Cc1ccccc1   residual activity          %         100
10         O=C(O)/C=C/c1cc(Br)c(Br)c(Br)c1Br   residual activity          %          54

The value of residual activity measured for the compound CN(C)S(=O)(=O)c1ccc2c(c1)/C(=C/c1cc3c([nH]1)CCCC3)C(=O)N2 turned out to be 86

The value of residual activity measured for the compound O=C(NC(NC(=S)Nc1ccc(F)c([N+](=O)[O-])c1)C(Cl)(Cl)Cl)C(c1ccccc1)c1ccccc1 (stereo not drawn) turned out to be 103

The value of residual activity measured for the compound Nc1ncnc2c1c(-c1ccc(Oc3ccccc3)cc1)cn2C1CCCC1 turned out to be 97

---

biological target: Death-associated protein kinase 1 (Homo sapiens); conditions: at 10 µM
PARAMETER_MEASURED: residual activity (%)
Note: unit % is implicit; provide only the numeric part.

The value of residual activity measured for the compound CCCC(=O)Oc1ccc2[nH]c(C(=O)c3cc4ccccc4[nH]3)cc2c1 turned out to be 68

The value of residual activity measured for the compound Nc1n[nH]c2nc3ccccc3nc12 turned out to be 96

The value of residual activity measured for the compound O=C(CCCc1ccc(-c2ccccc2F)cc1)Nc1ccc(O)cc1 turned out to be 105

The value of residual activity measured for the compound CN(C)S(=O)(=O)c1ccc2c(c1)/C(=C/c1cc3c([nH]1)CCCC3)C(=O)N2 turned out to be 99

The value of residual activity measured for the compound O=C1Nc2ccccc2/C1=C\c1c(Cl)[nH]c2ccccc12 turned out to be 83

The value of residual activity measured for the compound O=C1Nc2ccc(Cl)cc2/C1=C/c1cc(Cl)c(O)c(Cl)c1 turned out to be 46

The value of residual activity measured for the compound Fc1ccc(-c2nc3n(c2-c2ccncc2)CCS3)cc1 turned out to be 93

---

biological target: Hepatocyte growth factor receptor (Homo sapiens); conditions: at 1 µM
Quick reference: residual activity of the listed items.
Note: unit % is implicit; provide only the numeric part.

Examples with their reported residual activity follow.
> print(dat)
                                        mol  meas.value
1  c1ccc(-c2cnc(Nc3ccc(OCCN4CCCC4)cc3)s2)cc1          78
2                   Nc1ncnc2c1cnn2-c1ccccc1          98
3   N#C/C(=C\c1ccc(O)c(O)c1)C(=O)NCc1ccccc1         103
4  Nc1nc(Nc2ccc(S(N)(=O)=O)cc2)nn1C(=O)c1c(F)cccc1F          45

The value of residual activity measured for the compound COc1cc2ncnc(Nc3cccc(Cl)c3)c2cc1OC turned out to be 77

The value of residual activity measured for the compound Cc1cc(C)c(/C=C2\C(=O)Nc3ccccc32)[nH]1 turned out to be 101

The value of residual activity measured for the compound O=c1c(-c2ccc(F)cc2)c(-c2ccncc2)[nH]n1-c1ccc(Cl)cc1 turned out to be 67

The value of residual activity measured for the compound COc1cc2nccc(Oc3ccc(NC(=S)NC(=O)c4ccccc4C)cc3)c2cc1OC turned out to be 28

The value of residual activity measured for the compound CC(C)c1nn(-c2c(Cl)cccc2Cl)c2nc(Cc3ccc(OCCO)cc3)[nH]c(=O)c12 turned out to be 146

The value of residual activity measured for the compound Nc1ncnc2[nH]nc(Nc3ccc(F)cc3)c12 turned out to be 135

The value of residual activity measured for the compound O=C1NC(=O)C(c2cn(CCCn3ccnc3)c3ccccc23)=C1Nc1ccccc1 turned out to be 114

---

target: Serine/threonine-protein kinase PAK 4 (Homo sapiens) (UniProt O96013); conditions: at 10 µM
Sequence (O96013 whole entry, looked up): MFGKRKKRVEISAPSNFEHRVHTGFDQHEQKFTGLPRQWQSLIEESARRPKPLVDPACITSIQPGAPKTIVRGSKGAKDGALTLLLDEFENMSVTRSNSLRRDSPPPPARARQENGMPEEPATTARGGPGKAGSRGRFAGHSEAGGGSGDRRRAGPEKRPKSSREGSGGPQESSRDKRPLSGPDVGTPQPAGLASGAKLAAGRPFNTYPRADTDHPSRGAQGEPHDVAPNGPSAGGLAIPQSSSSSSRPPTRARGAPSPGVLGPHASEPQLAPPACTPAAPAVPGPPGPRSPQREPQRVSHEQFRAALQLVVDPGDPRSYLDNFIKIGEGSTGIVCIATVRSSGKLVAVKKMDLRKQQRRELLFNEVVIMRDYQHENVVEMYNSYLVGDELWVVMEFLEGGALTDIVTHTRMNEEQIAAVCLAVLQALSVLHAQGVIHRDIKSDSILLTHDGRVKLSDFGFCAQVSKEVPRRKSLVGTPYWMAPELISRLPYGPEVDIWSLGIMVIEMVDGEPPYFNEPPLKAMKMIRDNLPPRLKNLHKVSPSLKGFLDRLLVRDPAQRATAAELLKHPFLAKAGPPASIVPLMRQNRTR
PARAMETER_MEASURED: residual activity (%)
Note: unit % is implicit; provide only the numeric part.

> print(dat)
                                   molecule                               target.desc  meas.value
1     Cc1cc(C)c(/C=C2\C(=O)Nc3ccccc32)[nH]1  Serine/threonine-protein kinase PAK 4 (Homo sapiens) (UniProt O96013)          69
2  c1ccc(-c2cnc(Nc3ccc(OCCN4CCCC4)cc3)s2)cc1  Serine/threonine-protein kinase PAK 4 (Homo sapiens) (UniProt O96013)          76
3  CC(C)(C)n1nc(Cc2cccc3ccccc23)c2c(N)ncnc21  Serine/threonine-protein kinase PAK 4 (Homo sapiens) (UniProt O96013)          61

Serine/threonine-protein kinase PAK 4 (Homo sapiens) (UniProt O96013) data for O=S(=O)(c1cccc2cnccc12)N1CCCNCC1 ; its residual activity: 101

Serine/threonine-protein kinase PAK 4 (Homo sapiens) (UniProt O96013) data for NC(=O)c1ccc(-c2nc(-c3ccc4c(c3)OCCO4)c(-c3ccccn3)[nH]2)cc1 ; its residual activity: 98

Serine/threonine-protein kinase PAK 4 (Homo sapiens) (UniProt O96013) data for O=C1NC(=O)C(c2cn(CCCn3ccnc3)c3ccccc23)=C1Nc1ccccc1 ; its residual activity: 75
